system.under.test: human TRPV4 (Homo sapiens)
Construct: expressed in transfected cells; host or cells: BHK/AC9 cells transduced with BacMam virus
protocol: FLIPR assay for hTRPV4 expressed in BHK cells: inhibition of Agonist Compound-induced calcium signal
Assay type: cell-based
run.parameters: hTRPV4 in BHK/AC9 cells, FLIPR calcium signal, agonist at EC80; reported as range class; read-out: IC50
measured.metric: IC50

Report IC50, nothing else, for this molecule: N#Cc1ccc(S(=O)(=O)N2C[C@H](Oc3ccc(C#N)c(F)c3)[C@](O)(CO)C2)c(F)c1
0.1 to 10 nM

For the molecule N#Cc1ccc(S(=O)(=O)N2C[C@H](Oc3ccc(Cl)cc3)[C@](O)(CO)C2)c(Br)c1 , give its measured IC50 value.
0.1 to 10 nM

Give me measured IC50, please, for this molecule: COc1cc(C#N)c(F)cc1O[C@H]1CN(S(=O)(=O)c2ccc(C(F)(F)F)cc2C#N)C[C@@]1(O)CO
0.1 to 10 nM

Specify IC50 for CC(C)C[C@H](O)[C@]1(O)CN(S(=O)(=O)c2ccc(Cl)cn2)C[C@@H]1Oc1ccc(C#N)c(F)c1 and stop.
10 to 100 nM

Please give measured IC50 of the following entry: N#Cc1ccc(O[C@H]2CN(S(=O)(=O)c3ccc(Cl)cn3)C[C@@]2(O)CO)c(OCC(F)(F)F)c1
10 to 100 nM

Input COC(=O)c1cc(C#N)ccc1O[C@H]1CN(S(=O)(=O)c2ccc(C(F)(F)F)cc2C#N)C[C@@]1(O)CO , output reported IC50.
0.1 to 10 nM

Supply measured IC50 of N#Cc1cc(C(F)(F)F)ccc1S(=O)(=O)N1C[C@H](Oc2cc(F)c(C#N)c(F)c2)[C@](O)(CO)C1 in your reply.
0.1 to 10 nM

Kindly indicate its recorded IC50. Item: CCCCOc1cc(C#N)c(F)cc1O[C@H]1CN(S(=O)(=O)c2ccc(C(F)(F)F)cc2C#N)C[C@@]1(O)CO
0.1 to 10 nM

###

system.under.test: human TRPV4 (Homo sapiens, UniProt Q9HBA0)
Construct: expressed in transfected cells; host or cells: BHK/AC9 cells transduced with BacMam virus
Sequence (Q9HBA0 whole entry): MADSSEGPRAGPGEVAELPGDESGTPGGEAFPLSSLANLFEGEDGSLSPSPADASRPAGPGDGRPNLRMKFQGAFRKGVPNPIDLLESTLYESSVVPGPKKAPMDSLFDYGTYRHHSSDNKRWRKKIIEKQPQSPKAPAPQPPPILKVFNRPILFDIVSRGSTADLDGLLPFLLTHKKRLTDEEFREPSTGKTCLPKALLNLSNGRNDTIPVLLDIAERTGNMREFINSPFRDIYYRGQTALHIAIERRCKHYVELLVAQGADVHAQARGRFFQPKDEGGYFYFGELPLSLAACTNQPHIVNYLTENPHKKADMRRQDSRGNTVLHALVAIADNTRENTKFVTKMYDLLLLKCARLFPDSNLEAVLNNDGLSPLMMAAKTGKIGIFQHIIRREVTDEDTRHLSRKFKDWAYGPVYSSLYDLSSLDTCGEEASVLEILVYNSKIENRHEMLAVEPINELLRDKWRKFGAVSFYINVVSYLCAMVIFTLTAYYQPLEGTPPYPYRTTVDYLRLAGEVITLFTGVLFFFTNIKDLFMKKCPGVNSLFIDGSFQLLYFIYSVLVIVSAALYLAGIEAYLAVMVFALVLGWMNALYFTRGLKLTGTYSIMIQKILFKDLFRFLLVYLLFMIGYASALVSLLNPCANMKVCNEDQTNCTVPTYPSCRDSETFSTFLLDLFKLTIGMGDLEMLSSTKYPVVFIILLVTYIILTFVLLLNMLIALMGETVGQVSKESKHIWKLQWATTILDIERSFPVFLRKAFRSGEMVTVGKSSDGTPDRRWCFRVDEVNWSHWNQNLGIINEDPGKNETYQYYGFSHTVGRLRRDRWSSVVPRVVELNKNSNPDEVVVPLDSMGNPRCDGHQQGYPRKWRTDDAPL
protocol: FLIPR assay for hTRPV4 expressed in BHK cells: inhibition of Agonist Compound-induced calcium signal
Format: cell-based
run.parameters: hTRPV4 in BHK/AC9 cells, FLIPR calcium signal, agonist at EC80; reported as range class; read-out: IC50
pIC50: −log10 of the molar value.
Can you tell me pIC50 for the items I'm about to list?

Entry N#Cc1ccc(S(=O)(=O)N2C[C@H](Oc3ccc(C#N)c(F)c3)[C@](O)(CN)C2)cn1 needs its pIC50 filled in; supply it.
7.00 to 8.00

Return pIC50 for the following compound: CC(C)NC[C@]1(O)CN(S(=O)(=O)c2ccc(C(F)(F)F)cc2C#N)C[C@@H]1Oc1ccc(C#N)c(F)c1
8.00 to 10.00

Look up and report measured pIC50 for this entry: N#Cc1ccc(S(=O)(=O)N2C[C@H](Oc3cc(F)c(C#N)cc3OCC(F)(F)F)[C@](O)(CO)C2)cn1
8.00 to 10.00

Give me measured pIC50, please, for this compound: N#Cc1ccc(S(=O)(=O)N2C[C@H](Oc3ccc(C#N)c(F)c3)[C@](O)(CO)C2)c(C(F)(F)F)c1
7.00 to 8.00

Quickly give me recorded pIC50 for N#Cc1cc(C(F)(F)F)ccc1S(=O)(=O)N1C[C@H](Oc2ccccc2)[C@](O)(CO)C1
7.00 to 8.00

Check the records and state pIC50 for N#Cc1ccc(O[C@H]2CN(S(=O)(=O)c3ccc(Br)cn3)C[C@@]2(O)CO)cc1F
7.00 to 8.00

Query pIC50 for C[C@@H](O)[C@]1(O)CN(S(=O)(=O)c2ccc(C(F)(F)F)nc2)C[C@@H]1Oc1ccc(C#N)c(F)c1
7.00 to 8.00

Please give the documented pIC50 of C#Cc1ccc(S(=O)(=O)N2C[C@H](Oc3ccc(C#N)c(F)c3)[C@](O)(CO)C2)nc1
7.00 to 8.00

Quote pIC50 reported for N#Cc1cc(Cl)ccc1S(=O)(=O)N1C[C@H](Oc2ccc(Cl)cc2)[C@](O)(CO)C1 please.
8.00 to 10.00

Supply pIC50 value. Item: Cc1nc(C(F)(F)F)c(S(=O)(=O)N2C[C@H](Oc3ccc(C#N)c(F)c3)[C@](O)(CO)C2)s1
7.00 to 8.00

Give reported pIC50 value for N#Cc1ccc(O[C@H]2CN(S(=O)(=O)c3ccc(Cl)cc3C#N)C[C@@]23CNCCO3)cc1F
8.00 to 10.00

Note down pIC50 recorded for Cc1ccc(S(=O)(=O)N2C[C@H](Oc3cc(F)c(C#N)cc3OCC(C)C)[C@](O)(CO)C2)nn1
7.00 to 8.00

Note down pIC50 recorded for N#Cc1ccc(O[C@H]2CN(S(=O)(=O)c3ccc(OC(F)(F)F)cc3Cl)C[C@@]2(O)CO)cc1F
7.00 to 8.00

Indicate its recorded pIC50; the compound in question is CCCOc1cc(C#N)ccc1O[C@H]1CN(S(=O)(=O)c2ccc(C(F)(F)F)cc2C#N)C[C@@]1(O)CO
8.00 to 10.00

Please list pIC50 recorded for the compound C[C@H](O)[C@]1(O)CN(S(=O)(=O)c2ccc(Cl)cc2C#N)C[C@@H]1Oc1ccc(C#N)c(F)c1
8.00 to 10.00

###

system.under.test: human TRPV4 (Homo sapiens)
Construct: expressed in transfected cells; host or cells: BHK/AC9 cells transduced with BacMam virus
protocol: FLIPR assay for hTRPV4 expressed in BHK cells: inhibition of Agonist Compound-induced calcium signal
Format: cell-based
run.parameters: hTRPV4 in BHK/AC9 cells, FLIPR calcium signal, agonist at EC80; reported as range class; read-out: IC50
pIC50: −log10 of the molar value.
measured.metric: pIC50

Provide one value: measured pIC50 of N#Cc1ccc(O[C@H]2CN(S(=O)(=O)c3ccc(Cl)c(OC(F)(F)F)c3)C[C@@]2(O)CO)cc1F
7.00 to 8.00

Please supply the value of reported pIC50 for the item CC(C)COc1cc(C#N)c(F)cc1O[C@H]1CN(S(=O)(=O)c2ccc(C(F)(F)F)nc2)C[C@@]1(O)CO
7.00 to 8.00

State, in one line, measured pIC50 of N#Cc1cc(OCC(F)(F)F)c(O[C@H]2CN(S(=O)(=O)c3ccc(Cl)cc3Cl)C[C@@]2(O)CO)cc1F
8.00 to 10.00

Identify pIC50 associated with the compound COc1ccc(S(=O)(=O)N2C[C@H](Oc3ccc(C#N)c(F)c3)[C@](O)([C@H](C)O)C2)c(C#N)c1
7.00 to 8.00

###

system.under.test: human TRPV4 (Homo sapiens, UniProt Q9HBA0)
Construct: expressed in transfected cells; host or cells: BHK/AC9 cells transduced with BacMam virus
protocol: FLIPR assay for hTRPV4 expressed in BHK cells: inhibition of Agonist Compound-induced calcium signal
Type: cell-based
run.parameters: hTRPV4 in BHK/AC9 cells, FLIPR calcium signal, agonist at EC80; reported as range class; read-out: IC50
Excerpt: FLIPR Assay for hTRPV4 Expressed in BHK Cells: TRPV4 channel activation results in an influx of divalent and monovalent cations including calcium. The resulting changes in intracellular calcium were monitored using a calcium specific fluorescent dye Fluo-4 (MDS Analytical Technologies). […]
pIC50: −log10 of the molar value.
Provide the reported pIC50 of each item.

Specify reported pIC50 for the molecule shown: N#Cc1ccc(O[C@H]2CN(S(=O)(=O)c3ccc(C(F)(F)F)cc3C#N)C[C@@]2(O)CO)cc1C(F)(F)F [Example 11]
7.00 to 8.00

Identify measured pIC50 associated with N#Cc1ccc(S(=O)(=O)N2C[C@H](Oc3cc(F)c(C#N)cc3OCC(F)(F)F)[C@](O)(CO)C2)cc1 [Example 178]
8.00 to 10.00

Specify reported pIC50 for the molecule shown: N#Cc1ccc(O[C@H]2CN(S(=O)(=O)c3ccc(Cl)cc3C#N)C[C@]2(O)CO)cc1F [Example 139]
8.00 to 10.00

Give me measured pIC50, please, for this molecule: N#Cc1cccc(O[C@H]2CN(S(=O)(=O)c3ccc(C(F)(F)F)cc3C#N)C[C@@]2(O)CO)c1 [Example 53]
7.00 to 8.00

Query pIC50 for N#Cc1ccc(O[C@H]2CN(S(=O)(=O)c3ccc(OC(F)F)nc3)C[C@@]2(O)CO)cc1F [Example 126]
6.00 to 7.00

Kindly indicate its recorded pIC50. Item: N#Cc1ccc(O[C@H]2CN(S(=O)(=O)c3ccc(Cl)cc3C#N)C[C@@]2(O)CN)cc1F [Example 240]
8.00 to 10.00

For the molecule N#Cc1cc(OCC(F)(F)F)c(O[C@H]2CN(S(=O)(=O)c3ccc(C(F)(F)F)cc3C#N)C[C@@]2(O)CO)cc1F [Example 157] , report pIC50.
8.00 to 10.00

Note pIC50 for the molecule shown: N#Cc1ccc(O[C@H]2CN(S(=O)(=O)c3ccc(I)cc3Cl)C[C@@]2(O)CO)cc1F [Example 115]
8.00 to 10.00

Specify measured pIC50 for N#Cc1cc(OCC(F)(F)F)c(O[C@H]2CN(S(=O)(=O)c3ccc(C(F)(F)F)nc3)C[C@@]2(O)CO)cc1F [Example 175] .
7.00 to 8.00

Name the recorded pIC50 of the item N#Cc1cc(Cl)ccc1S(=O)(=O)N1C[C@H](Oc2cc(F)c(F)c(F)c2)[C@](O)(CO)C1 [Example 22] in your answer.
8.00 to 10.00

State its pIC50 for this molecule: N#Cc1ccc(O[C@H]2CN(S(=O)(=O)c3ccc(I)cn3)C[C@@]2(O)CO)cc1F [Example 130]
7.00 to 8.00

State its pIC50 for this molecule: N#Cc1ccc(O[C@H]2CN(S(=O)(=O)c3ccc(C(F)(F)F)cc3C#N)C[C@@]2(O)CO)cc1OC(F)(F)F [Example 21]
7.00 to 8.00

Identify measured pIC50 corresponding to N#Cc1ccc(O[C@H]2CN(S(=O)(=O)c3c(Cl)cc(C(F)(F)F)cc3Cl)C[C@@]2(O)CO)cc1F [Example 96]
7.00 to 8.00

Let me know recorded pIC50 for N#Cc1cc(F)ccc1S(=O)(=O)N1C[C@H](Oc2ccc(Cl)cc2)[C@](O)(CO)C1 [Example 155] , thanks.
8.00 to 10.00

Check the records and state pIC50 for N#Cc1ccc(S(=O)(=O)N2C[C@H](Oc3ccc(C(F)(F)F)cc3)[C@](O)(CO)C2)c(Cl)c1 [Example 150]
7.00 to 8.00

Reference source for all entries: patent US11229623B2
